Origin of values: ChEMBL document CHEMBL1147973

Each entry below carries its recorded Ki.
Assay System: Secreted chorismate mutase (Mycobacterium tuberculosis)
Sequence (P9WIB9 whole entry): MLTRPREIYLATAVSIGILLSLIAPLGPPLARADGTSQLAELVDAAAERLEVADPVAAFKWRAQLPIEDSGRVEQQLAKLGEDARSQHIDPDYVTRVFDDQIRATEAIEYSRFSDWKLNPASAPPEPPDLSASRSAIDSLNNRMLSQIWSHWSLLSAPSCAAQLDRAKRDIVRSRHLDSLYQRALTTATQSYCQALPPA
Experiment Notes: Inhibition of chorismate mutase in Mycobacterium tuberculosis H37Rv strain
Property Label: Ki

Compound	Property Label	Assay Result
CC(C)CC(NC(=O)C1CSC(c2ccccc2)N1C(=O)OC(C)(C)C)C(=O)O (centres undefined)	Ki	21.1 µM
COc1ccc(CCNc2c([N+](=O)[O-])cc(C(=O)O)cc2S(N)(=O)=O)cc1OC	Ki	5.7 µM
CNc1ccc(C(=O)OC)cc1[N+](=O)[O-]	Ki	28.8 µM
COc1cc(/C=C(\C(=O)O)c2ccc(Cl)cc2)c([N+](=O)[O-])cc1OC	Ki	17.7 µM
